# tgt: FinO (Salmonella enterica SL1344 (virulence …, UniProt A0A0H3P176 1-187))
# assay-overview: EMSA; yeast RNA 1 ug/reaction; apparent Kd; 25 mM Tris-HCl pH 7.4, 150 mM NaCl, 1 mM MgCl2, 1 ug yeast RNA/reaction, 4 nM labeled RNA, 37 C, 1 h (EMSA) or 30 min (filter binding)
# measurement-parameters: protein: recombinant; tags: His6-3C (expression plasmid pMiG007-His6-3C-FinO); label: 32P (5' end; 3' pCp alternative for probing); FinP-like stem-loops, short 3' tail
result-type: Kd

So, RepX (structured_RNA) RNA: GGGCAUUGAUUGCCUCCUUUGCAGGCAGUUGGUGGUUAGGCGCUGGCGGGGUCACUACCCCCGCCCUGCGCCGCUCU ? Its Kd was ~500 nM
